// provenance: ChEMBL document CHEMBL4823260

Listed next: entries and their corresponding log10 EC50.
target: Transient receptor potential cation channel subfamily M member 5 (Homo sapiens); test: Agonist activity at human TRPM5 expressed in CHO-K1 cells maintained at 80 mV final holding potential by syncroPatch assay; format: cell-based
# values: log10(EC50), units nM

Record Clc1cnc(COc2ccc3sncc3c2)s1 ; system Transient receptor potential cation channel subfamily M member 5 (Homo sapiens); log10 EC50 = 2.92

Record Cc1nnc(CNc2ccc3sncc3c2)s1 ; system Transient receptor potential cation channel subfamily M member 5 (Homo sapiens); log10 EC50 = 4.28

Record CN(Cc1ncc(Cl)s1)c1ccc2sncc2c1 ; system Transient receptor potential cation channel subfamily M member 5 (Homo sapiens); log10 EC50 = 2.65

Record Clc1cnc(CNc2ccc3sncc3n2)s1 ; system Transient receptor potential cation channel subfamily M member 5 (Homo sapiens); log10 EC50 = 3.07

Record Clc1cnc(CNc2ccc3sncc3c2Cl)s1 ; system Transient receptor potential cation channel subfamily M member 5 (Homo sapiens); log10 EC50 = 3.20

Record Fc1cc(NCc2ncc(Cl)s2)cc2cnsc12 ; system Transient receptor potential cation channel subfamily M member 5 (Homo sapiens); log10 EC50 = 3.14

====

experiment: Drug concentration in C57BL6 mouse ileum at 3 mg/kg, po administered as single dose measured after 6 to 48 hrs by LC-MS/MS analysis; assay type: ADME, organism-based; details: in vivo, time 6-48 hrs
reported.property: Ct

So for Clc1cnc(CNc2cc3sncc3cc2Cl)s1 , the logged Ct turned out to be < 20 ng/mL

====

test: AUClast in CD-1 mouse at 10 mg/kg, po measured up to 24 hrs; type: ADME, organism-based; parameters: route oral, dose 10 mg/kg, time <=24; settings: in vivo
reported.property: AUC(0-t) at 24 h
I'd appreciate it if you wrote the number followed by its unit.

So for Clc1cnc(CNc2ccc3cnsc3c2)s1 , the logged AUC(0-t) at 24 h turned out to be 94.3 ng·h/mL

====

target: Transient receptor potential cation channel subfamily A member 1 (Homo sapiens); assay: Agonist activity at human TRPA1 expressed in HEK cells assessed as increase in menthol-induced intracellular calcium level incubated for 2 hrs by FLIPR assay
Sequence (O75762 whole entry): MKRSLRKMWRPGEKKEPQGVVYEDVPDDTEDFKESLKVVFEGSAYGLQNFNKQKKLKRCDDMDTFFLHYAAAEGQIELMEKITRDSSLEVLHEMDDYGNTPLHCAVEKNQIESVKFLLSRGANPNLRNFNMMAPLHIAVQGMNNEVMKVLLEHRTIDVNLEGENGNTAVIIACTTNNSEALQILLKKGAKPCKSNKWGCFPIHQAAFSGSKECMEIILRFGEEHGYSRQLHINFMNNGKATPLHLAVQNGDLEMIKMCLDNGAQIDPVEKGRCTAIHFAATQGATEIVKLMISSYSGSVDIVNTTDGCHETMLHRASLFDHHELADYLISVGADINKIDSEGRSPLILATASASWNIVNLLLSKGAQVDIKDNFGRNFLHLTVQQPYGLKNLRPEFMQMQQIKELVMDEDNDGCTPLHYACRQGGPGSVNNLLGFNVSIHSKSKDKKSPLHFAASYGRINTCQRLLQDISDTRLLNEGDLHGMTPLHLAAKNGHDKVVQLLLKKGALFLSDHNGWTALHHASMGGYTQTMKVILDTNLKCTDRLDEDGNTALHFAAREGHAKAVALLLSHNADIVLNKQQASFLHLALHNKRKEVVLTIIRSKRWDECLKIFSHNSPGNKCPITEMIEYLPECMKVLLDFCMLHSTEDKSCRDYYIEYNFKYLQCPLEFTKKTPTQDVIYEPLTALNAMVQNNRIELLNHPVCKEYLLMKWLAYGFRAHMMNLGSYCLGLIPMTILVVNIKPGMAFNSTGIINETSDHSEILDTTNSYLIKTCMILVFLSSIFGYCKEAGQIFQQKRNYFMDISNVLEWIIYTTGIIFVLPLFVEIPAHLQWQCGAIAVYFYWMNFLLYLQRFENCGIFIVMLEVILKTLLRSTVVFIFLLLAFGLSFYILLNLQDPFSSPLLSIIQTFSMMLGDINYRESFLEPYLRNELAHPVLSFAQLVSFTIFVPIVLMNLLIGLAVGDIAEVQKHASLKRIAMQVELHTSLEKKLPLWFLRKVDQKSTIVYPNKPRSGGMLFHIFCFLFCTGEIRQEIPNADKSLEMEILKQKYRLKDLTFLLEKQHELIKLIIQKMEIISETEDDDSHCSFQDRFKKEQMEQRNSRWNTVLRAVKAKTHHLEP
Listed next: entries and their corresponding EC50.
Reply numerically in µM, unit not repeated.

Please review the entries below; each comes with its answer.
| smiles.notation | assay.system | EC50 (µM) |
| --- | --- | --- |
| Clc1cnc(CNc2ccc3sncc3c2)s1 | Transient receptor potential cation channel subfamily A member 1 (Homo sapiens) | 3.16 |
| Clc1cnc(CNc2cc3sncc3cc2Cl)s1 | Transient receptor potential cation channel subfamily A member 1 (Homo sapiens) | 3.16 |

In the following, a different molecule is considered.
So for Clc1cnc(CNc2ccc3cnsc3c2)s1 , the logged EC50 turned out to be 6.31

====

assay: Drug concentration in C57BL6 mouse colon at 100 mg/kg, po administered as single dose measured after 24 hrs by LC-MS/MS analysis; assay type: ADME, organism-based; details: read-out: Ct
reported.property: concentration at 24 h (ng/g)
Reply numerically in ng/g, unit not repeated.

So for Clc1cnc(CNc2cc3sncc3cc2Cl)s1 , the logged concentration at 24 h turned out to be 164

====

test: Drug concentration in C57BL6 mouse ileum at 100 mg/kg, po administered as single dose measured after 48 to 72 hrs by LC-MS/MS analysis; format: ADME, organism-based; details: in vivo, time 48-72 hrs
reported.property: Ct

So for Clc1cnc(CNc2cc3sncc3cc2Cl)s1 , the logged Ct turned out to be < 20 ng/mL

====

experiment: Efflux ratio of apparent permeability across basolateral to apical over apical to basolateral membrane in human Caco-2 cells incubated for 30 mins by LC-MS/MS analysis; format: ADME, cell-based
reported.property: efflux ratio at 0.5 h
Reply: number alone, nothing else.

Please review the entries below; each comes with its answer.
| smiles.notation | observed |
| --- | --- |
| Clc1cnc(CNc2ccc3cnsc3c2)s1 | 1.08 |
| Cn1c(Cl)cnc1CNc1ccc2sncc2c1 | 1.03 |
| Clc1cnc(CNc2cc3sncc3cc2Cl)s1 | 1.6 |

So for Clc1cnc(CNc2ccc3sncc3c2)s1 , the logged efflux ratio at 0.5 h turned out to be 0.97

====

assay: Protein binding in rat plasma assessed as unbound fraction measured after 5 hrs by equilibrium dialysis based HPLC/UPLC-MS/MS analysis; assay type: ADME, cell-free
reported.property: fraction unbound at 5 h

So for Clc1cnc(CNc2ccc3sncc3c2)s1 , the logged fraction unbound at 5 h turned out to be < 0.01

====

assay: Intrinsic clearance in human liver microsomes assessed per mg protein incubated up to 30 mins in presence of NADPH by LC-MS/MS analysis; assay type: ADME, Microsome
Binarize microsomal CLint at 200 µL/min/mg; below is 1, at or above is 0.

A selection of reference data follows.
| smiles.notation | group.label |
| --- | --- |
| Cc1c(NCc2ncc(Cl)s2)ccc2sncc12 | 1 |
| Clc1cnc(CNc2ccc3cnsc3c2)s1 | 1 |
| Fc1cc2sncc2cc1NCc1ncc(Cl)s1 | 1 |
| Cc1cc2sncc2cc1N(C)Cc1ncc(Cl)s1 | 0 |

Strictly below 200 µL/min/mg: is that where microsomal CLint of Fc1c(NCc2ncc(Cl)s2)ccc2sncc12 sits?
0

====

assay: Volume of distribution at steady state in CD-1 mouse at 1 mg/kg, iv measured up to 24 hrs; format: ADME, organism-based; settings: in vivo, read-out: Vdss
reported.property: Vd (L/kg)
Reply numerically in L/kg, unit not repeated.

So for Clc1cnc(CNc2ccc3cnsc3c2)s1 , the logged Vd turned out to be 1.12

====

target: Transient receptor potential cation channel subfamily M member 5 (Mus musculus, UniProt Q9JJH7); assay: Agonist activity at mouse TRPM5 expressed in CHO-K1 cells maintained at 80 mV final holding potential by syncroPatch assay
Sequence (Q9JJH7 whole entry): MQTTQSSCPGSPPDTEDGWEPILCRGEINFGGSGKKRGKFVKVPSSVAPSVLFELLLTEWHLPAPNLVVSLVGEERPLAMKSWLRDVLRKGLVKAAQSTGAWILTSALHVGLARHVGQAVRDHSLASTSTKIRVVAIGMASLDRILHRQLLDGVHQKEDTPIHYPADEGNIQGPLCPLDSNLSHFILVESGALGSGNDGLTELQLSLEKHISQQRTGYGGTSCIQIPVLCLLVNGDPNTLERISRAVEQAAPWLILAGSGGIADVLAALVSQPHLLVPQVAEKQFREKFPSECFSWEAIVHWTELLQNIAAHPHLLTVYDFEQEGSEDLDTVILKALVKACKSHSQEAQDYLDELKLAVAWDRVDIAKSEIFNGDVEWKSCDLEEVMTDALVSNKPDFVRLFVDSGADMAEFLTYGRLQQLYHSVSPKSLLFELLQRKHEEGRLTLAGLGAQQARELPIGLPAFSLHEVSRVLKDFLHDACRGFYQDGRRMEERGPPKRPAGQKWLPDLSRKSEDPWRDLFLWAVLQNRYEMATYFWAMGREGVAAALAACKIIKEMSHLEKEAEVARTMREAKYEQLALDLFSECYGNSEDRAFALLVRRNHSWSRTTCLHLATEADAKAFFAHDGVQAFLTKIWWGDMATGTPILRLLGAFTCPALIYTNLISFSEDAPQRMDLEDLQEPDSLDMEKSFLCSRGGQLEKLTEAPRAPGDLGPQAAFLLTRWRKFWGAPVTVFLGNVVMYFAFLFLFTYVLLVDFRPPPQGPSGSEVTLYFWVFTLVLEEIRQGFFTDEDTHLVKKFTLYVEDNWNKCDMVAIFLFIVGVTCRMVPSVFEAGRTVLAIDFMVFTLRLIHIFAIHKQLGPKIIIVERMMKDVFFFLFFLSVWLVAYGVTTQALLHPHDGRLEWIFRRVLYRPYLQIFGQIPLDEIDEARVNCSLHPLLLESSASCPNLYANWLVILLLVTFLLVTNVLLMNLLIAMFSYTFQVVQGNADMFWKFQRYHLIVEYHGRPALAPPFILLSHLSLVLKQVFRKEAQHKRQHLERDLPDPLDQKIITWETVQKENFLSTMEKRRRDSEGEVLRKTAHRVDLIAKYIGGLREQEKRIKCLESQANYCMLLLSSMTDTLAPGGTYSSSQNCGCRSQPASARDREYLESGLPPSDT
Listed next: entries and their corresponding EC50.
Reply numerically in nM, unit not repeated.

Please review the entries below; each comes with its answer.
| smiles.notation | reported.property | observed |
| --- | --- | --- |
| Cn1c(Cl)cnc1CNc1ccc2sncc2c1 | EC50 | 316 |
| Clc1cnc(CNc2ccc3sncc3c2)s1 | EC50 | 85.1 |
| Clc1cnc(CNc2cc3sncc3cc2Cl)s1 | EC50 | 15.8 |

In the following, a different compound is considered.
So for Clc1cnc(CNc2ccc3cnsc3c2)s1 , the logged EC50 turned out to be 43.7

====

experiment: Half life in CD-1 mouse at 1 mg/kg, iv measured up to 24 hrs; format: ADME, organism-based; conditions: in vivo
reported.property: half-life
I'd appreciate it if you wrote the number followed by its unit.

So for Clc1cnc(CNc2ccc3cnsc3c2)s1 , the logged half-life turned out to be 48.6 min

====

assay: Intrinsic clearance in human liver microsomes assessed per mg protein incubated up to 30 mins in presence of NADPH by LC-MS/MS analysis; format: ADME, Microsome
Listed next: entries and their corresponding microsomal CLint.
Reply numerically in µL/min/mg, unit not repeated.

| smiles.notation | observed |
| --- | --- |
| Clc1cnc(CNc2cnc3sncc3c2)s1 | 84 |
| Cc1cc(NCc2ncc(Cl)s2)cc2cnsc12 | 169 |
| Clc1cnc(COc2ccc3sncc3c2)s1 | 157 |
| Clc1cnc(CNc2cc3cnsc3cc2Cl)s1 | 149 |
| Cn1c(Cl)cnc1CNc1ccc2sncc2c1 | 109 |
| Clc1cnc(CNc2ccc3sncc3n2)s1 | 172 |
| Clc1cnc(CNc2cc3cnsc3cn2)s1 | 155 |
| Clc1cnc(CNc2cc(Cl)c3sncc3c2)s1 | 150 |
| Clc1cnc(CNc2ccc3sncc3c2)s1 | 193 |
| CC(C)(Nc1ccc2sncc2c1)c1ncc(Cl)s1 | 173 |

So for Fc1cc(NCc2ncc(Cl)s2)cc2cnsc12 , the logged microsomal CLint turned out to be 202

So for Cc1cc2sncc2cc1NCc1ncc(Cl)s1 , the logged microsomal CLint turned out to be 157

So for Clc1cnc(CNc2ccc3sncc3c2Cl)s1 , the logged microsomal CLint turned out to be 174

So for Clc1cnc(CNc2cc3sncc3cc2Cl)s1 , the logged microsomal CLint turned out to be 172

====

molecular target: Transient receptor potential cation channel subfamily M member 5 (Homo sapiens, UniProt Q9NZQ8); assay: Agonist activity at human TRPM5 expressed in CHO-K1 cells maintained at 80 mV final holding potential by syncroPatch assay; format: cell-based
Sequence (Q9NZQ8 whole entry): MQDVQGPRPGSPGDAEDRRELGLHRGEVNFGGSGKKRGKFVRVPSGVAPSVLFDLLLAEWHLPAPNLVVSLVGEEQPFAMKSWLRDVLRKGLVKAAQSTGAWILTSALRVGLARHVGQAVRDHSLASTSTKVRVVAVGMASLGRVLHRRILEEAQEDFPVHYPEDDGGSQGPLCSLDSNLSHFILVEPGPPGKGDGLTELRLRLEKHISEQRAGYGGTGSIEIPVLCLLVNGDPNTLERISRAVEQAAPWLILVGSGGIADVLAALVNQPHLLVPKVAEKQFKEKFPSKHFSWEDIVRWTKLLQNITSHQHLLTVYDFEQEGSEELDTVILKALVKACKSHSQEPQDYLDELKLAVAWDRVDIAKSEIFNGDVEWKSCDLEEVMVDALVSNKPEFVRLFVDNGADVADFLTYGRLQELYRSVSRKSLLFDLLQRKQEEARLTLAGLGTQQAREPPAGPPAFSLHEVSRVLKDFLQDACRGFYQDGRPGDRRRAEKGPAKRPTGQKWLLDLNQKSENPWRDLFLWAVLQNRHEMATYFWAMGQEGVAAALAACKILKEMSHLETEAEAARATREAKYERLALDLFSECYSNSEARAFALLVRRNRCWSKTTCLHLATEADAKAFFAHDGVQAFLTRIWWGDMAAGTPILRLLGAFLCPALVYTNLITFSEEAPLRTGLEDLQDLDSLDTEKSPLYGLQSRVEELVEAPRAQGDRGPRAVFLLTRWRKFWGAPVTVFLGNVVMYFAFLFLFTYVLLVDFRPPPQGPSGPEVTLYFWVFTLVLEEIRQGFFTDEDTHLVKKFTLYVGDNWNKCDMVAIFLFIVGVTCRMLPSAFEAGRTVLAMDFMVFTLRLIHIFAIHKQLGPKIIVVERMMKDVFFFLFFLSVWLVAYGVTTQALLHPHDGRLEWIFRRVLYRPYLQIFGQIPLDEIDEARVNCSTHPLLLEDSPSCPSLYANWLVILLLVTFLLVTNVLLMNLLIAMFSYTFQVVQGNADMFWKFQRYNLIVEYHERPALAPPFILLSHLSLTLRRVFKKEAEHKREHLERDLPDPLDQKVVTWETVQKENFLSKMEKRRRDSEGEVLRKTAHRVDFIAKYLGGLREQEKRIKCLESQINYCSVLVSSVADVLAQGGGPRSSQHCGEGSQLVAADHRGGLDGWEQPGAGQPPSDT
Listed next: entries and their corresponding log10(EC50).
# values: log10(EC50), units nM

Please review the entries below; each comes with its answer.
| molecule | log10(EC50) |
| --- | --- |
| Clc1cnc(CNc2cnc3sncc3c2)s1 | 3.82 |
| CCN(Cc1ncc(Cl)n1C)c1ccc(Br)cc1 | 3.71 |

So for Cn1c(Cl)cnc1CNc1cc2sncc2cc1F , the logged log10(EC50) turned out to be 2.01

So for Cn1c(Br)cnc1CNc1ccc2sncc2c1 , the logged log10(EC50) turned out to be 2.66

So for Cc1cc2cnsc2cc1NCc1ncc(Cl)n1C , the logged log10(EC50) turned out to be 1.58

So for Cn1c(Cl)cnc1CNc1ccc2sncc2c1 , the logged log10(EC50) turned out to be 2.52

So for Cn1ccnc1CNc1ccc(Cl)cc1OCCC(F)(F)F , the logged log10(EC50) turned out to be 3.40

So for Cn1c(Cl)cnc1CNc1ccc(Cl)cc1F , the logged log10(EC50) turned out to be 3.67

So for Cn1c(Cl)cnc1CN(CC1CC1)c1ccc2sncc2c1 , the logged log10(EC50) turned out to be 2.20

So for Cc1c(NCc2ncc(Cl)s2)ccc2sncc12 , the logged log10(EC50) turned out to be 3.24

So for Cn1c(Cl)cnc1CN1CCc2ccccc21 , the logged log10(EC50) turned out to be 4.36

So for Fc1cc2cnsc2cc1NCc1ncc(Cl)s1 , the logged log10(EC50) turned out to be 1.46

So for Fc1c(NCc2ncc(Cl)s2)ccc2sncc12 , the logged log10(EC50) turned out to be 2.97

So for Clc1snnc1CNc1ccc2sncc2c1 , the logged log10(EC50) turned out to be 3.72

So for Clc1ccc(CNc2ccc3sncc3c2)s1 , the logged log10(EC50) turned out to be 3.44

So for CC(Nc1ccc2sncc2c1)c1ncc(Cl)s1 (stereo not drawn) , the logged log10(EC50) turned out to be 3.88

So for CN(Cc1ncc(Cl)n1C)c1cc2sncc2cc1Cl , the logged log10(EC50) turned out to be 2.49

So for Clc1cnc(CNc2cc3sncc3cc2Cl)s1 , the logged log10(EC50) turned out to be 0.90

So for Cn1c(Cl)cnc1CNc1ccc2scnc2c1 , the logged log10(EC50) turned out to be 4.13

So for CN(Cc1ncc(Cl)n1C)c1ccc2cnsc2c1 , the logged log10(EC50) turned out to be 1.93
